# measured_target: UniProt O15151
# Sequence (O15151 whole entry, looked up): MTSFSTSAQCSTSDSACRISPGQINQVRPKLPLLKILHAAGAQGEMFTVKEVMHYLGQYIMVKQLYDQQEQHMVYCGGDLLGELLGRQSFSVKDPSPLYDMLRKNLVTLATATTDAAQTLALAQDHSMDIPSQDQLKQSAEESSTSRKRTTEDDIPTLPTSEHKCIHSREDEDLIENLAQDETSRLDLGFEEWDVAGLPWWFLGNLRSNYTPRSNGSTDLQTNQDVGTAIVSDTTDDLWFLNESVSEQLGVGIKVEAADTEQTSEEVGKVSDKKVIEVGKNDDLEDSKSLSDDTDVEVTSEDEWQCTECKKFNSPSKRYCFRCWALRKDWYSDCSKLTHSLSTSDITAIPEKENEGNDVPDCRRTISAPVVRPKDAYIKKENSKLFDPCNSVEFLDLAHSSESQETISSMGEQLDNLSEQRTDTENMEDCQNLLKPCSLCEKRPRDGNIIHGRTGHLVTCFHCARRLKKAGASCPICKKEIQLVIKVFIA
Where a SMILES comes first, the peptide text is derived from it. Bridges are numbered along the chain shown (N, C = ends). [ ]: non-standard residue; d: D form. R8 = C=CCCCCCC[C@@](C)(N)C(=O)O; S5 = C=CCCC[C@](C)(N)C(=O)O
measured_endpoint: IC50 (nM)
Express the result in nM but write the number alone.

Q: Tell me the measured IC50 of CC(=O)N[C@@H](Cc1c[nH]c2ccccc12)C(=O)N[C@H](C(=O)N[C@@H](Cc1ccccc1)C(=O)N[C@]1(C)CCCCCCC=CCCC[C@@](C)(C(=O)N[C@@H](CO)C(N)=O)NC(=O)[C@H](CC(C)C)NC(=O)[C@H](CCC(N)=O)NC(=O)[C@H](C)NC(=O)[C@H](Cc2c[nH]c3ccccc23)NC(=O)[C@H](Cc2ccc(O)cc2)NC(=O)[C@H](Cc2c[nH]cn2)NC1=O)[C@@H](C)O [SP-256, Ac- W T F $r8 H Y W A Q L $ S -NH2] (Ac-WTF[R8]HYWAQL[S5]S-NH2; staple 4-11 (inferred)) , please.
A: 204

----------
# assay_text: Circular dichroism (CD) analysis of alpha-helicity
# Type: physicochemical
# condition_details: 222 nm, benign CD buffer (20 mM phosphoric acid, pH 2), 0% TFE, 0.05 mg/ml, 4° C.
Where a SMILES comes first, the peptide text is derived from it. Bridges are numbered along the chain shown (N, C = ends). [ ]: non-standard residue; d: D form. R8 = C=CCCCCCC[C@@](C)(N)C(=O)O; S5 = C=CCCC[C@](C)(N)C(=O)O
Hi there, I'd appreciate the recorded Molar Ellipticity Benign (222 in 0% TFE) for every entry that follows.
Express the result in deg cm^2dmol^−1 but write the number alone.

Q: Tell me the measured Molar Ellipticity Benign (222 in 0% TFE) of CC(=O)N[C@@H](CC(C)C)C(=O)N[C@H](C(=O)N[C@@H](Cc1ccccc1)C(=O)N[C@]1(C)CCCCCCC=CCCC[C@@](C)(C(=O)N[C@@H](CO)C(=O)N[C@@H](C)C(=O)N[C@@H](C)C(N)=O)NC(=O)[C@H](CC(C)C)NC(=O)[C@H](CCC(N)=O)NC(=O)[C@H](C)NC(=O)[C@H](Cc2c[nH]c3ccccc23)NC(=O)[C@H](Cc2ccc(O)cc2)NC(=O)[C@H](C)NC1=O)[C@@H](C)O [compound 11] (Ac-LTF[R8]AYWAQL[S5]SAA-NH2; staple 4-11) , please.
A: −398.2

Q: Tell me the measured Molar Ellipticity Benign (222 in 0% TFE) of CC(=O)N[C@@H](CC(C)C)C(=O)N[C@H](C(=O)N[C@@H](Cc1ccccc1)C(=O)N[C@]1(C)CCCCCCC=CCCC[C@@](C)(C(=O)N[C@@H](C)C(=O)N[C@@H](C)C(=O)N[C@@H](C)C(=O)N[C@H](C)C(N)=O)NC(=O)[C@H](CC(C)C)NC(=O)[C@H](CCC(N)=O)NC(=O)[C@H](C)NC(=O)[C@H](Cc2c[nH]c3ccccc23)NC(=O)[C@H](Cc2ccc(O)cc2)NC(=O)[C@H](C)NC1=O)[C@@H](C)O (single isomer, unassigned) , please.
A: −213.2

Q: Tell me the measured Molar Ellipticity Benign (222 in 0% TFE) of CCCC[C@H](NC(=O)[C@H](C)NC(=O)[C@H](C)NC(=O)[C@]1(C)CCC/C=C/CCCCCC[C@@](C)(NC(=O)[C@H](Cc2ccccc2)NC(=O)[C@@H](NC(=O)[C@H](CC(C)C)NC(C)=O)[C@@H](C)O)C(=O)N[C@@H](C)C(=O)N[C@@H](Cc2ccc(O)cc2)C(=O)N[C@@H](Cc2c[nH]c3ccccc23)C(=O)N[C@@H](C)C(=O)N[C@@H](CCC(N)=O)C(=O)N[C@@H](CC(C)C)C(=O)N1)C(=O)N[C@@H](C)C(N)=O , please.
A: −102.6

Q: Tell me the measured Molar Ellipticity Benign (222 in 0% TFE) of CC(=O)N[C@@H](CC(C)C)C(=O)N[C@H](C(=O)N[C@@H](Cc1ccccc1)C(=O)N[C@]1(C)CCCCCCC=CCCC[C@@](C)(C(=O)N[C@@H](C)C(=O)N[C@@H](C)C(=O)N[C@@H](C)C(=O)N[C@@H](C)C(=O)N[C@H](C)C(N)=O)NC(=O)[C@H](CC(C)C)NC(=O)[C@H](CCC(N)=O)NC(=O)[C@H](C)NC(=O)[C@H](Cc2c[nH]c3ccccc23)NC(=O)[C@H](Cc2ccc(O)cc2)NC(=O)[C@H](C)NC1=O)[C@@H](C)O , please.
A: −477.9

Q: Tell me the measured Molar Ellipticity Benign (222 in 0% TFE) of CC(=O)N[C@@H](CC(C)C)C(=O)N[C@H](C(=O)N[C@@H](Cc1ccccc1)C(=O)N[C@]1(C)CCCCCCC=CCCC[C@@](C)(C(=O)N[C@@H](Cc2c[nH]cn2)C(=O)N[C@@H](Cc2c[nH]cn2)C(=O)N[C@@H](CC(C)C)C(=O)N[C@H](C)C(N)=O)NC(=O)[C@H](CC(C)C)NC(=O)[C@H](CCC(N)=O)NC(=O)[C@H](C)NC(=O)[C@H](Cc2c[nH]c3ccccc23)NC(=O)[C@H](Cc2ccc(O)cc2)NC(=O)[C@H](C)NC1=O)[C@@H](C)O [compound 43] (Ac-LTF[R8]AYWAQL[S5]HHL[dA]-NH2; staple 4-11) , please.
A: −15334.5

The reported numbers originate from patent US20170349638A1.
